Source of measurements: PubChem BioAssay (NCI)

Test system: A549 NSCLC
Experiment: NCI tumour cell line growth inhibition, 48 h
Endpoint Label: TGI

>>> recorded_value("COC(=O)C(CCSC)NC(=O)Cc1ccc(C(=O)c2ccccc2)cc1 (stereo not drawn)")
"> 100 µM"

Please supply TGI for each of the following items, keeping them in order.
1. Cc1cc(C)c(-n2c(-c3ccc(Br)cc3)cs/c2=N\N=C2C=C(C(C)(C)C)C(=O)C(C(C)(C)C)=C2)c(C)c1
2. Cc1ccc(NC(=O)c2cc(S(=O)(=O)Nc3nc4ncccc4[nH]3)c(SSc3cc(Cl)c(C(=O)Nc4ccc(C)cc4)cc3S(=O)(=O)Nc3nc4ncccc4[nH]3)cc2Cl)cc1
3. CC(=O)O[C@H]1C(=O)[C@@]2(C)C(C(OC(=O)c3ccccc3)C3[C@@H](O)C(OC(=O)[C@@H](O)[C@H](NC(=O)c4ccccc4)c4ccc(C(F)(F)F)cc4)C(C)=C1C3(C)C)[C@]1(OC(C)=O)CO[C@@H]1C[C@@H]2O (stereo partly drawn)

result:
> 100 µM
> 100 µM
> 25 µM

Please supply TGI for each of the following items, keeping them in order.
1. CCOC(=O)c1c2c(n3ccccc13)C(=O)c1ncccc1C2=O
2. Cc1nc2c(=O)n(C)ncc2[nH]1
3. COC(=O)C1(C)C=CC(=O)C2(C)C1C(O)C1OC3CC(c4ccoc4)C(C)=C3C1(C)C2CC(=O)O (stereo not drawn)
4. N#C/C(=C\c1ccc(Br)cc1)n1nnc2ccc(F)cc21

result:
1. 8.01 µM
2. > 100 µM
3. > 100 µM
4. 72.4 µM

====

System: M14 melanoma
Experiment: NCI tumour cell line growth inhibition, 48 h
Endpoint Label: TGI

Answered examples (4):
>>> recorded_value("O=C1C(=Cc2c(O)cc(O)cc2O)C(=O)c2ccccc21")
"> 57.2 µM"
>>> recorded_value("Cc1cc2c([nH]c3ccccc32)c2c1OC(C)(C)C1C3CC(C)(C)Oc4c(C)cc5c6ccccc6n(c5c43)C21 (configuration not stated)")
"> 100 µM"
>>> recorded_value("O=C(NC12CC3CC(CC(C3)C1)C2)C(=O)c1c[nH]c2ccccc12")
"29.3 µM"
>>> recorded_value("N#CC1(C#N)C(C#N)(C#N)C12CCCCCC2")
"8.67 µM"

Please supply TGI for each of the following items, keeping them in order.
1. O=C(/C=C/c1ccc(C(F)(F)F)cc1)c1ccc(Nc2nc(NCCO)nc(Nc3ccc(Cl)cc3)n2)cc1
2. COc1cc(/C=c2\sc3n(c2=O)C(c2ccc(Cl)cc2)C2=C(CCCC2C)N=3)cc(OC)c1OC (configuration not stated)
3. COC(C)(C)C/C=C/C(C)=C/C=C/C(C)=C\C=C\C(C)=C\C=C\C=C(C)\C=C\C=C(C)\C=C\C=C(C)\C=C\CC(C)(C)OC

result:
1. 13.4 µM
2. > 100 µM
3. > 150 µg/mL

====

System: UACC-257 melanoma
Test: NCI tumour cell line growth inhibition, 48 h
Please respond with reported TGI for every item in the list.

Answered examples (8):
>>> recorded_value("CC(=O)c1cc2ccccc2oc1=O")
"> 100 µM"
>>> recorded_value("COc1cc(Nc2ncc(F)c(Nc3ccc4c(n3)N(COP(=O)(O)O)C(=O)C(C)(C)O4)n2)cc(OC)c1OC")
"> 90.7 µM"
>>> recorded_value("COC(=O)c1c2cccccc-2c(Cc2c3cccccc-3c(C(=O)OC)c2O)c1O")
"> 100 µM"
>>> recorded_value("CCOC(=O)C(SCCO)C(C(=O)OCC)n1ccc(=O)[nH]c1=O (centres undefined)")
"> 100 µM"
>>> recorded_value("CC(=O)O[C@H]1[C@H](OC(=O)CC(C)(O)CC(=O)O)C[C@]2(C)C3=C(CCC2C1(C)C)[C@]1(C)CC[C@H]([C@H]2CC[C@H](C(C)(C)O)OC2O)[C@@]1(C)[C@@H](O)C3 (some centres undefined)")
"35.4 µM"
>>> recorded_value("BrC(c1cccc2ccccc12)c1cccc2ccccc12")
"53.3 µM"
>>> recorded_value("COC(=O)C(CCSC)NC(=O)Cc1ccc(C(=O)c2ccccc2)cc1 (centres undefined)")
"> 100 µM"
>>> recorded_value("CC(=O)Nc1ccc(C2SCc3nc4ccccc4n32)cc1 (centres undefined)")
"> 100 µM"

Here's the next entry for you.
query: Bench note: what TGI did `Cc1cc(C)c(-n2c(-c3ccc(Br)cc3)cs/c2=N\N=C2C=C(C(C)(C)C)C(=O)C(C(C)(C)C)=C2)c(C)c1` show?
result: > 100 µM

====

Test system: IGROV1 ovarian
Assay: NCI tumour cell line growth inhibition, 48 h
Endpoint Label: GI50

>>> recorded_value("Cn1cc(-c2ccc(-c3ccc(C4=NC5(CC5)C(=O)N4C[C@@H]4CCN(C(=O)C5CC5)C4)cc3)cc2)cn1")
"28.7 µM"
>>> recorded_value("CCNC(=O)O[C@H]1CN[C@H](C#Cc2cc3ncnc(Nc4ccc(OCc5cccc(F)c5)c(Cl)c4)c3s2)C1")
"2.66 µM"
>>> recorded_value("Cc1cc(N2CCOCC2)cc2[nH]c(-c3c(NC[C@@H](O)c4cccc(Cl)c4)cc[nH]c3=O)nc12")
"0.912 µM"

Please supply GI50 for each of the following items, keeping them in order.
1. O=C1C(Cl)=C(NCc2ccco2)C(=O)c2ccccc21
2. CN(C)CCCNC(=O)c1cc(NC(=O)c2cc(NC(=O)CCNS(=O)(=O)c3ccc4c(c3)C(=O)c3ccccc3C4=O)cn2C)cn1C
3. O=c1c(-c2ccccc2)coc2cc(OC/C(=N/O)c3ccccc3)ccc12
4. Oc1ccc2oc3ncc(Br)c(-c4ccccc4)c3c2c1

result:
1: 10.9 µM; 2: > 100 µM; 3: 17.5 µM; 4: > 100 µM

Please supply GI50 for each of the following items, keeping them in order.
1. O=C(/C=C/c1ccc(C(F)(F)F)cc1)c1ccc(Nc2nc(NCCO)nc(Nc3ccc(Cl)cc3)n2)cc1
2. COc1cc(C2CC(c3ccc(Nc4ccnc5cc(Cl)ccc45)cc3)=NN2c2ccc(Cl)cc2)cc(OC)c1OC (centres undefined)

result:
4.92 µM
4.81 µM

====

Test system: BT-549 breast
Assay: NCI tumour cell line growth inhibition, 48 h
Short version: TGI at least 20 µM is rule met, less is rule not met.

query: Check if TGI >= 20 µM (inclusive). Item: CC(C)CC(NC(=O)OC(C)(C)C)C(=O)Nc1ccc(Nc2nc(F)nc(-c3c4ccccc4cn3C)n2)cc1 (centres undefined)
result: rule met

query: For `CC1(C)OCC=CCO1` then?
result: rule met

query: For `Oc1ccc(-c2nc3ccc(Cl)cc3s2)cc1` then?
result: rule met

query: For `O=[N+]([O-])c1ccc(N/N=C/c2ccc(OCCCCCCCCCCCO)cc2)c([N+](=O)[O-])c1` then?
result: rule not met

query: For `C[C@@H]1CC[C@@H]2[C@@H](C1)O[C@@H]([C@H](C)OCc1ccccc1)SC2(C)C` then?
result: rule met

query: For `O=C1C(=O)c2cccnc2-c2ncccc21` then?
result: rule not met

query: For `O=C1C(c2c(O)[nH]c3ccc(Br)cc23)=Nc2ccccc21` then?
result: rule met

query: For CCCC(=O)Nc1cc(/C=C/C(=O)N2CC(CCl)c3c2cc(O)c2[nH]cc(C)c32)n(C)c1 (centres undefined) then?
result: rule not met

query: For CC(C)=CC1=C2C3=C(C(=O)C4(O)Oc5c(C)c6c7c(c5OC24C)[C@@H](C)CC[C@@H]7[C@@H](C)C[C@H]6C=C(C)C)C(C)CCC3C(C)C1 (some centres undefined) then?
result: rule met

query: For `CCN1CCN(CC(=O)N2c3cccc4cccc(c34)N(C(=O)CN3CCN(CC)CC3)C2c2cn(-c3ccccc3)nc2-c2cccc([N+](=O)[O-])c2)CC1` then?
result: rule not met

query: For `O=C1C[C@@H]2/C(=C(O)\C=C\c3ccccc3)C(=O)C=C[C@@H]2O1` then?
result: rule not met

query: For `O=C1c2ccccc2-c2c1c1ccccc1c(=O)n2CCCn1ccnc1` then?
result: rule met

query: For `COc1ccc2nc(-c3ccc(O)cc3)sc2c1` then?
result: rule met

query: For `COc1cc(CNNC(N)=S)cc(OC)c1OC` then?
result: rule met

query: For `N#C/C(N)=C(\C#N)NC(=O)C(=O)N/C(C#N)=C(\N)C#N` then?
result: rule met

query: For `CCN(CC)c1ccc(C(=O)c2ccc(N(CC)CC)cc2)cc1` then?
result: rule not met

query: For `O=C(Nc1nc(C23CC4CC(CC(C4)C2)C3)cs1)c1cc2ccccc2oc1=O` then?
result: rule met

query: For `Cc1ccc(NC(=O)c2cc(S(=O)(=O)Nc3nc4ncccc4[nH]3)c(SSc3cc(Cl)c(C(=O)Nc4ccc(C)cc4)cc3S(=O)(=O)Nc3nc4ncccc4[nH]3)cc2Cl)cc1` then?
result: rule met

query: For CC(=O)Nc1ccc(C2SCc3nc4ccccc4n32)cc1 (centres undefined) then?
result: rule met

query: For COc1cc(C(O)(CC#N)c2cc3c(cc2Br)OCO3)cc(OC)c1OC (centres undefined) then?
result: rule met

query: For CC(=O)Nc1c(C)cc2c(nc3n2CCC3O)c1[N+](=O)[O-] (centres undefined) then?
result: rule met
